system: Vibrio harveyi; assay: Inhibition of AI-2-mediated quorum sensing system in Vibrio harveyi BB170 assessed as reduction in AI-2 production at 10 ug/ml by bioluminescence method relative to control; settings: dose 10.0 µg/ml
measured attribute: inhibition (%)

>>> meas_value("O=C1O/C(=C\\c2ccc(O)c(Br)c2)C(c2ccc(O)c(Br)c2)=C1C(=O)c1ccc(O)cc1")
99.6
>>> meas_value("COc1ccc(C#CC(=O)c2ccc(Br)cc2)cc1")
100
>>> meas_value("COc1ccc(C(=O)C#Cc2ccc(Br)c(OC)c2)cc1")
100

* * *

tested on: Pseudomonas aeruginosa; test: Inhibition of biofilm formation in Pseudomonas aeruginosa PAO1 at 50 ug/ml by crystal violet staining based microtiter plate method relative to control; format: functional
Below is a list of entries, each paired with its recorded inhibition at 50 µg/mL value.
State just the number; it will be interpreted in %.

The recorded inhibition at 50 µg/mL for entry `COc1ccc(C(=O)C2=C(c3ccc(OC)c(Br)c3)/C(=C/c3ccc(Cl)cc3)OC2=O)cc1` equals 10

* * *

system: Vibrio harveyi; assay: Inhibition of AHL-mediated quorum sensing system in Vibrio harveyi BB886 assessed as reduction in luminescence at 10 ug/ml by bioluminescence method relative to control; details: dose 10.0 µg/ml
measured attribute: inhibition (%)

>>> meas_value("COc1ccc(/C=C2\\OC(=O)C(C(=O)c3ccc(Br)cc3)=C2c2ccc(OC)c(Br)c2)cc1Br")
76.1
>>> meas_value("COc1ccc(/C=C2\\OC(=O)C(C(=O)c3ccc(Br)cc3)=C2c2ccc(OC)c(Br)c2)cc1")
78.1
>>> meas_value("COc1ccc(C2=C(C(=O)c3ccc(Br)cc3)C(=O)OC2)cc1Br")
72.6
>>> meas_value("O=C1O/C(=C\\c2ccc(O)c(Br)c2)C(c2ccc(O)c(Br)c2)=C1C(=O)c1ccc(O)cc1")
88.7
>>> meas_value("COc1cc(C#CC(=O)c2ccc(Br)cc2)ccc1Br")
80

* * *

tested on: Vibrio harveyi; assay: Inhibition of AI-2-mediated quorum sensing system in Vibrio harveyi BB170 assessed as reduction in AI-2 production at 10 ug/ml by bioluminescence method relative to control; settings: dose 10.0 µg/ml
measured attribute: inhibition (%)

>>> meas_value("COc1ccc(/C=C2\\OC(=O)C(C(=O)c3ccc(Br)cc3)=C2c2cccc(OC)c2)cc1")
76.1
>>> meas_value("COc1ccc(C(=O)C2=C(c3ccc(OC)c(Br)c3)/C(=C/c3ccc(OC)c(Br)c3)OC2=O)cc1")
74.9
>>> meas_value("COc1cc(C#CC(=O)c2cccc(Br)c2)ccc1Br")
100

* * *

tested on: Pseudomonas aeruginosa; assay: Inhibition of biofilm formation in Pseudomonas aeruginosa PAO1 at 50 ug/ml by crystal violet staining based microtiter plate method relative to control; assay type: functional
Below, each entry is listed with its recorded inhibition at 50 µg/mL.
A number alone suffices; assume %.

>>> meas_value("COc1cc(C#CC(=O)c2ccc(Br)cc2)ccc1Br")
29
>>> meas_value("O=C1O/C(=C\\c2ccc(O)c(Br)c2)C(c2ccc(O)c(Br)c2)=C1C(=O)c1ccc(O)cc1")
10
>>> meas_value("COc1ccc(C#CC(=O)c2ccc(Br)cc2)cc1")
29

Sample `COc1cccc(C2=C(C(=O)c3ccc(Br)cc3)C(=O)OC2)c1` , system: Pseudomonas aeruginosa. Its inhibition at 50 µg/mL is 22.7

Per the reported Pseudomonas aeruginosa data, `COc1ccc(C2=C(C(=O)c3ccc(Br)cc3)C(=O)OC2)cc1Br` has inhibition at 50 µg/mL of 15.3
